In this section we review reported % R (isolates resistant) values for a set of molecules.
Test system: Pseudomonas aeruginosa (n = 109)
Assay type: cell-based
condition-summary: Pseudomonas aeruginosa (n = 109), CLSI breakpoints
Bridge positions count the residues as written; N and C are the ends. Square brackets hold non-standard residues; d marks the D form. Peptide text beside a SMILES is read from it. * marks the point of attachment. X1 = CC[C@H](C)CCCCC(=O)*; Dab = NCC[C@H](N)C(=O)O
Answer format: number, then unit.

INSERT INTO measurements (molecule, readout_value) VALUES
  ('CC[C@H](C)CCCCC(=O)N[C@@H](CCN)C(=O)N[C@H](C(=O)N[C@@H](CCN)C(=O)N[C@H]1CCNC(=O)[C@H]([C@@H](C)O)NC(=O)[C@H](CCN)NC(=O)[C@H](CCN)NC(=O)[C@H](CC(C)C)NC(=O)[C@@H](CC(C)C)NC(=O)[C@H](CCN)NC1=O)[C@@H](C)O [Colistin, reference compound] (X1-[Dab]T[Dab][Dab][Dab][dL]L[Dab][Dab]T; lactam 4-C)', '7.3%');

Input line: Using the record for C[C@@H](O)[C@H]1C(=O)N2C(C(=O)O)=C(S[C@@H]3CN[C@H](C(=O)N(C)C)C3)[C@H](C)[C@H]12 [Meropenem] , state its measured % R (isolates resistant).
Output line: 20.2%

Input line: Using the record for NC[C@H]1O[C@H](O[C@H]2[C@H](O)[C@@H](O[C@H]3O[C@H](CO)[C@@H](O)[C@H](N)[C@H]3O)[C@H](N)C[C@@H]2N)[C@H](N)C[C@@H]1O [Tobramycin] , state its measured % R (isolates resistant).
Output line: 7.4%

Input line: Using the record for C[C@H]1COc2c(N3CCN(C)CC3)c(F)cc3c(=O)c(C(=O)O)cn1c23 [Levofloxacin] , state its measured % R (isolates resistant).
Output line: 21.1%

Input line: Using the record for CC(C)(O/N=C(\C(=O)N[C@@H]1C(=O)N2C(C(=O)[O-])=C(C[n+]3ccccc3)CS[C@H]12)c1csc(N)n1)C(=O)O [Ceftazidime] , state its measured % R (isolates resistant).
Output line: 14.6%
